The molecules listed here are annotated with their IC50.
Tested on: rabbit vWF domain A1 binding to lyophilized platelets
Sequence (as listed by the source): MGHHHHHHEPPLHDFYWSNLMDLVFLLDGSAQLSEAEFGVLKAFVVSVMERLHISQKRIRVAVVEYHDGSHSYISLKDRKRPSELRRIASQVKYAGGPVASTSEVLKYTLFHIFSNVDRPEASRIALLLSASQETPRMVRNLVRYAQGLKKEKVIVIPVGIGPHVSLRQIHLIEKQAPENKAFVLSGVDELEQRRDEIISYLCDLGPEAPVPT
Assay: Rabbit von Willebrand Factor domain A1 platelet binding assay (FACS)
Assay type: cell-based
Conditions: 4 nM rabbit A1 vWF, lyophilized platelets, botrocetin; both bounds in nM; read-out: Inhibition of rabbit VWF A1 domain binding in FACS assay, IC50 range
Measure Name: IC50 (nM)

Molecule	Measured Number
AMX238.D12: DNA SELEX 2 aptamer clone (nucleic acid, DNA, backbone and methylation of C not given here, DNA SELEX 2 aptamer clone) DNA: CTACCTACGATCTGACTAGCTCCAGTGTTTCATTCAATAACCGTGCGGTGCCTCCGTGAGCTTACTCTCATGTAGTTCC	7.2
AMX237.A11: DNA SELEX 2 aptamer clone (nucleic acid, DNA, backbone and methylation of C not given here, DNA SELEX 2 aptamer clone) CTACCTACGATCTGACTAGCTCCAGTGTTTTATCCAATAACCGTGCGGTGCCTCCGTGAGCTTACTCTCATGTAGTTCC	4.7
AMX237.B11: DNA SELEX 2 aptamer clone (nucleic acid, DNA, backbone and methylation of C not given here, DNA SELEX 2 aptamer clone) DNA: CTACCTACGATCTGACTAGCTCCAGTGTTTTATCTAATAACCGTGCGGTGCCTCCGTGAGCTTACTCTCATGTAGTTCC	5.7
AMX236.A12: DNA SELEX 2 aptamer clone (nucleic acid, DNA, backbone not given here, DNA SELEX 2 aptamer clone) CTACCTACGATCTGACTAGCTTGGTAGCGACTCTGTGGAGCTGCGGTTTGGTCGACGTCAGCTTACTCTCATGTAGTTCC	14.5
AMX237.A2: DNA SELEX 2 aptamer clone (nucleic acid, DNA, backbone and methylation of C not given here, DNA SELEX 2 aptamer clone) CTACCTACGATCTGACTAGCTCCAGTGTTTCATCCAATAACCGTGCGGTGCCTCCGTGAGCTTACTCTCATGTAGTTCC	7
AMX237.G7: DNA SELEX 2 aptamer clone (nucleic acid, DNA, backbone not given here, DNA SELEX 2 aptamer clone) DNA: CTACCTACGATCTGACTAGCTTGGTAGCGACTTTGTGGAGCTGCGGTTTGGTCGACGTCAGCTTACTCTCATGTAGTTCC	12.3
AMX238.G5: DNA SELEX 2 aptamer clone (nucleic acid, DNA, backbone and methylation of C not given here, DNA SELEX 2 aptamer clone) DNA: CTACCTACGATCTGACTAGCTCCAGTGTTTTATTCAATAACCGTGCGGTGCCTCCGTGAGCTTACTCTCATGTAGTTCC	5.5

The values you see were collected from patent US7998940B2.
